# target entity: Polyunsaturated fatty acid 5-lipoxygenase (Homo sapiens)
# experiment notes: Inhibition of human recombinant 5-LOX expressed in Escherichia coli BL21(DE3) assessed as enzyme remaining activity at 10 uM using arachidonic acid as substrate preincubated with compound for 15 mins followed by substrate and CaCl2 addition measured after 10 mins by RP-HPLC analysis relative to control
# experimental conditions: time 25.0 min
recorded metric: Activity (%)
The reply should contain only the number, in %.

Would you please look over these solved cases?
{"compound": "N=c1c2c(ncn1Cc1ccccc1)CCN(Cc1ccccc1)C2", "target entity": "Polyunsaturated fatty acid 5-lipoxygenase (Homo sapiens)", "unit of measure": "%", "Activity": 96.2}
{"compound": "O=C1C(C(O)c2ccccc2)CCCC1C(O)c1ccccc1 (stereo unspecified)", "target entity": "Polyunsaturated fatty acid 5-lipoxygenase (Homo sapiens)", "unit of measure": "%", "Activity": 103}

**Q:** Determine from records and report Activity for Nc1nc(N)c2cc([S+]([O-])c3ccc4ccccc4c3)ccc2n1 (stereo unspecified)
**A:** 94.6

**Q:** Determine from records and report Activity for O=C1C/C(=C/c2cccc(OCc3ccccc3)c2)C(=O)N1
**A:** 94.4

**Q:** Determine from records and report Activity for Oc1ccc(CCC2CCC(c3ccc(O)cc3)CO2)cc1 (stereo unspecified)
**A:** 96.5

**Q:** Determine from records and report Activity for CC(=O)NC(CCc1ccc(Cl)c(Cl)c1)c1cccc(O)c(=O)c1 (stereo unspecified)
**A:** 5.3

###

# target entity: UniProtKB P09917
# experiment notes: Inhibition of 5-LOX in human Neutrophil assessed as enzyme remaining activity at 10 uM preincubated with compound for 15 mins followed by A23187 addition measured after 10 mins by RP-HPLC analysis relative to control
# Type: cell-based
# experimental conditions: time 25.0 min
Threshold check on Activity: at or above 90% gives True, strictly below gives False.

Solved entries (count: 5):
{"compound": "COC(=O)c1ccc(NCc2cc(O)c3ccccc3c2O)cc1", "answer label": "False"}
{"compound": "O=C(NCc1ccco1)Nc1cccc(-c2ccccc2)c1", "answer label": "True"}
{"compound": "CC(=O)NC(CCc1ccc(Cl)c(Cl)c1)c1cccc(O)c(=O)c1 (stereo unspecified)", "answer label": "False"}
{"compound": "CC(=O)NC(CC(=O)Nc1cccc2c1Cc1ccccc1-2)C(=O)O (stereo unspecified)", "answer label": "True"}
{"compound": "O=C1c2ccccc2C(=O)N1CCc1nc(-c2ccccc2)c[nH]1", "answer label": "True"}

**Q:** # bool: Activity of CC1CCc2c(c(CC3CC(=O)NC(=O)C3)nn2-c2ccccc2)C1 (stereo unspecified) >= 90%
**A:** True

**Q:** # bool: Activity of O=C1CCC(CCc2nc3ccccc3[nH]2)(c2ccccc2)C(=O)N1 (stereo unspecified) >= 90%
**A:** True

**Q:** # bool: Activity of N=C(N)/N=C(/C=C/c1ccccc1)CC1OC(=O)c2ccccc21 (stereo unspecified) >= 90%
**A:** False

**Q:** # bool: Activity of Oc1nc(Cc2ccc3ccccc3n2)cc(-c2ccccc2)n1 >= 90%
**A:** False

**Q:** # bool: Activity of N=C1OC(c2c[nH]c3ccc(OCc4ccccc4)cc23)C(O)=C1O (stereo unspecified) >= 90%
**A:** False

###

# Activity per entry
# target entity: Prostaglandin E synthase (Homo sapiens)
# Sequence (whole entry): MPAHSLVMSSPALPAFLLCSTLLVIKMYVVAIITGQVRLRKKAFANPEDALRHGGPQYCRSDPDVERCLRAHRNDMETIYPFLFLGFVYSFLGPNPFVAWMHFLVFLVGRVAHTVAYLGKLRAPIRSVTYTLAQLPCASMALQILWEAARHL
# experiment notes: Inhibition of human mPGES-1 assessed as enzyme remaining activity at 10 uM relative to control
The reply should contain only the number, in %.

Would you please look over these solved cases?
{"molecule": "COc1ccc(C2=C/C(=C/c3ccc(O)cc3O)C(=O)O2)cc1", "target entity": "Prostaglandin E synthase (Homo sapiens)", "Activity / %": 89.3}
{"molecule": "O=C1N=C(Nc2nc3ccccc3[nH]2)OC1c1ccccc1 (configuration not stated)", "target entity": "Prostaglandin E synthase (Homo sapiens)", "Activity / %": 83.6}
{"molecule": "O=C(/C=C/c1ccccc1)CCc1c(O)c2ccccc2oc1=O", "target entity": "Prostaglandin E synthase (Homo sapiens)", "Activity / %": 52.6}
{"molecule": "O=C1Nc2ccccc2/C1=N\\CCc1c[nH]c2ccccc12", "target entity": "Prostaglandin E synthase (Homo sapiens)", "Activity / %": 30.4}
{"molecule": "Oc1ccc(CCC2CCC(c3ccc(O)cc3)CO2)cc1 (configuration not stated)", "target entity": "Prostaglandin E synthase (Homo sapiens)", "Activity / %": 80.3}
{"molecule": "O=C1CCC(CCc2nc3ccccc3[nH]2)(c2ccccc2)C(=O)N1 (configuration not stated)", "target entity": "Prostaglandin E synthase (Homo sapiens)", "Activity / %": 92.7}

**Q:** Determine from records and report Activity for COC(=O)c1ccc(NCc2cc(O)c3ccccc3c2O)cc1
**A:** 50.4

**Q:** Determine from records and report Activity for O=C(NCc1ccco1)Nc1cccc(-c2ccccc2)c1
**A:** 88.1

**Q:** Determine from records and report Activity for NNC(=O)CCc1ccc2ccc3ccccc3c2c1
**A:** 80.5

**Q:** Determine from records and report Activity for CC(C)c1ccc2c(c1)c(SC(C)(C)C)c(CC(C)(C)C(=O)O)n2Cc1ccc(Cl)cc1
**A:** 45.8

**Q:** Determine from records and report Activity for Cn1c(=O)c2nc(CCCc3nc4ccccc4[nH]3)[nH]c2n(C)c1=O
**A:** 90.9

**Q:** Determine from records and report Activity for CC(=O)c1cccc2cc(CC(=O)c3ccccc3)c(=O)oc12
**A:** 59

**Q:** Determine from records and report Activity for Oc1nc(Cc2ccc3ccccc3n2)cc(-c2ccccc2)n1
**A:** 55.8

**Q:** Determine from records and report Activity for N=c1c2c(ncn1Cc1ccccc1)CCN(Cc1ccccc1)C2
**A:** 93.9

**Q:** Determine from records and report Activity for N=C1OC(c2c[nH]c3ccc(OCc4ccccc4)cc23)C(O)=C1O (configuration not stated)
**A:** 56.8

**Q:** Determine from records and report Activity for O=C1C/C(=C/c2cccc(OCc3ccccc3)c2)C(=O)N1
**A:** 83.1

**Q:** Determine from records and report Activity for O=C1NC(=O)C(CCC(=O)c2ccc3ccccc3c2)C(=O)N1
**A:** 77.5

**Q:** Determine from records and report Activity for Nc1nc(N)c2cc([S+]([O-])c3ccc4ccccc4c3)ccc2n1 (configuration not stated)
**A:** 88.3

**Q:** Determine from records and report Activity for O=C(O)c1cnc2cc(OCCc3ccc(F)cc3)ccc2c1O
**A:** 75.9

**Q:** Determine from records and report Activity for CC(=O)NC(CC(=O)Nc1cccc2c1Cc1ccccc1-2)C(=O)O (configuration not stated)
**A:** 96.3

###

# target entity: UniProtKB P09917
# Sequence (whole entry): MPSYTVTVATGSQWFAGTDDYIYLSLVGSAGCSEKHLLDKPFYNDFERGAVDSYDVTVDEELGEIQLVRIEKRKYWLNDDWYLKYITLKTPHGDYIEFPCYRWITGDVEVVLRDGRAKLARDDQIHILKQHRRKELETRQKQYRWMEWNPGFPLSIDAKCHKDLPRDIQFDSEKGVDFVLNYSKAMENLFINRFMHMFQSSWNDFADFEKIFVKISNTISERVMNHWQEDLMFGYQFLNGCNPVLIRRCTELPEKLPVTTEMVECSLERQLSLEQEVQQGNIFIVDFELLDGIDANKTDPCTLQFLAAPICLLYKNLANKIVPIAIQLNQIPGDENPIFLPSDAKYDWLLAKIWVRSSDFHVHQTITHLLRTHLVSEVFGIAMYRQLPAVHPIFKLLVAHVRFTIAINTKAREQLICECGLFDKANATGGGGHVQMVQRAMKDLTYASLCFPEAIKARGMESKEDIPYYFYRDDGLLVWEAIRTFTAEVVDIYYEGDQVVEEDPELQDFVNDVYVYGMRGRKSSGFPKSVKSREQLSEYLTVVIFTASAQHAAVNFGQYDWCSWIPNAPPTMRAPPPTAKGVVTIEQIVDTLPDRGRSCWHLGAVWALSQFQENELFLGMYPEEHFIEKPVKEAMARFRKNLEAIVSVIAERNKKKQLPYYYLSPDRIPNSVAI
# experiment notes: Inhibition of 5-LOX in human Neutrophil at 10 uM preincubated with compound for 15 mins followed by A23187 addition measured after 10 mins by RP-HPLC analysis relative to control
# Format: cell-based
# experimental conditions: time 25.0 min
The source made the active and inactive calls. No cut-off for these calls is given here.
recorded metric: inhibition

Would you please look over these solved cases?
{"compound": "O=C(c1nc2ccc(Cl)cc2nc1O)C(O)c1ccc2c(c1)OCO2 (centres undefined)", "inhibition": "inactive"}
{"compound": "NNC(=O)CCc1ccc2ccc3ccccc3c2c1", "inhibition": "inactive"}
{"compound": "CC(=O)NC(CC(=O)Nc1cccc2c1Cc1ccccc1-2)C(=O)O (centres undefined)", "inhibition": "inactive"}
{"compound": "Cn1c(=O)c2nc(CCCc3nc4ccccc4[nH]3)[nH]c2n(C)c1=O", "inhibition": "inactive"}
{"compound": "CC(=O)c1cccc(NC(=O)Oc2ccc3c(C)cc(=O)oc3c2)c1", "inhibition": "inactive"}

**Q:** Determine from records and report inhibition for Cc1ccc(Nc2nnc(-c3ccc4c(c3)OCO4)o2)c(C)c1
**A:** inactive

**Q:** Determine from records and report inhibition for O=C1C/C(=C/c2cccc(OCc3ccccc3)c2)C(=O)N1
**A:** inactive

**Q:** Determine from records and report inhibition for O=C(NCc1ccco1)Nc1cccc(-c2ccccc2)c1
**A:** inactive

**Q:** Determine from records and report inhibition for COc1ccc(C2=C/C(=C/c3ccc(O)cc3O)C(=O)O2)cc1
**A:** > 50%

**Q:** Determine from records and report inhibition for N=C(N)/N=C(/C=C/c1ccccc1)CC1OC(=O)c2ccccc21 (centres undefined)
**A:** inactive

**Q:** Determine from records and report inhibition for O=C1Nc2ccccc2/C1=N\CCc1c[nH]c2ccccc12
**A:** inactive

**Q:** Determine from records and report inhibition for CC1CCc2c(c(CC3CC(=O)NC(=O)C3)nn2-c2ccccc2)C1 (centres undefined)
**A:** inactive

**Q:** Determine from records and report inhibition for O=C1c2ccccc2C(=O)N1CCc1nc(-c2ccccc2)c[nH]1
**A:** inactive
